- TEST_PROTOCOL: Example 1 plasma pharmacokinetics (LC/MS)
- CONDITIONS_USED: human, in vivo, 80 mg/m^2

{"COMPOUND": "CN1CCC(c2c(O)cc(O)c3c(=O)cc(-c4ccccc4Cl)oc23)[C@H](O)C1.Cl (stereo partly shown)", "Cmax [µM]": 4.4}

---

- TEST_PROTOCOL: Example 1 plasma pharmacokinetics (LC/MS)
- CONDITIONS_USED: human, plasma, intravenous, terminal half-life, mean±S.D., after the end of the 4-hour CIVI
OUTCOME_MEASURE: half-life (min)

{"MOLECULE": "CN1CCC(c2c(O)cc(O)c3c(=O)cc(-c4ccccc4Cl)oc23)[C@H](O)C1.Cl (stereo partly shown) [Flavopiridol]", "VALUE_OBSERVED": 840}
